# Test system: Plasmodium falciparum
# assay: GSK_TCMDC: Inhibition of Plasmodium falciparum 3D7 in whole red blood cells, using parasite LDH activity as an index of growth. Test compounds present at 2uM
# Type: functional
Inhibition for assorted molecules
Number in %, nothing else.

Please review the following examples before continuing.
CCN(CC)CCOc1ccc(C(O)(C#CC(O)(c2ccc(Br)cc2)c2ccc(OCCN(CC)CC)cc2)c2ccc(Br)cc2)cc1 (stereo not drawn) = 99
COc1ccc(NC(=O)Nc2ccc(-c3ccncc3)c(Cl)c2)cc1N1CCN(C)CC1 = 98
CC(Cc1ccc(OCC(=O)NCC2CCN(CCc3cccc(Cl)c3)CC2)cc1)NCCc1cccc(Cl)c1.Cl (stereo not drawn) = 96
CCC(C)CN1CCN(c2ccc(NC(=O)c3cccs3)cc2)C(C)C1.O=C(O)C(F)(F)F (stereo not drawn) = 95
CS(=O)(=O)Nc1ccc2[nH]cc(C3CCN(CC(O)C4CCN(C(=O)/C=C/c5ccc(Cl)c(Cl)c5)CC4)CC3)c2c1.O=C(O)C(F)(F)F (stereo not drawn) = 100
CCc1sc(N2CCC(C)CC2)nc1C(=O)Nc1ccc(F)cc1C(F)(F)F = 94
O=S(=O)(Nc1cccc(CCN2CCCCC2CCN2CCCC2)c1)c1ccc2ccccc2c1 (stereo not drawn) = 91
O=C(Nc1ccc(Cn2ncc(N3CCCNCC3)c(Cl)c2=O)cc1)Nc1ccc(-c2ccccc2)cc1.O=C(O)C(F)(F)F = 93
Cl.O=c1cc(NCCCNCc2cc3ccc(Br)cc3s2)[nH]c2ccccc12 = 92
CC(C)[C@H](NC(=O)NC1CCC(CCN2C3CCC2CC(OC(=O)C(CO)c2ccccc2)C3)CC1)C(O)(c1ccccc1)c1ccccc1 (stereo partly drawn) = 90

Now consider a different molecule.
Entry CN1C(=C2SC(=Nc3ccc4ncccc4c3)N(Cc3ccccc3)C2=O)Sc2ccc(Cl)cc21 needs its Inhibition filled in; supply it.
99

###

# Tested on: Plasmodium falciparum
# assay: GSK_TCMDC: Inhibition of Plasmodium falciparum Dd2 in whole red blood cells, using parasite LDH activity as an index of growth. Test compounds present at 2uM
# Type: functional
Lab note - cut at 80% for Inhibition: Yes if strictly below, No if not.

As a guide, the following entries are already answered.
CC(=O)c1cccc(NC(=O)c2ccc(Cl)c(S(=O)(=O)N3CCc4ccccc43)c2)c1 = Yes
CC(=Nc1ccc(Cl)c(Cl)c1)N(C)C.Cl = Yes
COc1ccc2ncc(F)c([C@H](O)CN3CCC(NCc4ccc5c(c4)OCCO5)CC3)c2c1.Cl = No
COc1ccc2nccc([C@@H](O)CN3CCC(NCc4nc5c(cc4F)SCC(=O)N5)C(F)C3)c2c1.Cl (stereo not given in full) = Yes

Okay, next one:
Dear colleague, could you confirm whether Inhibition of O=[N+]([O-])c1ccccc1C=NN=c1cc[nH]c2ccccc12 falls below 80%? Thanks.
No

###

Inhibition for assorted compounds
# Test system: Plasmodium falciparum
# assay: GSK_TCMDC: Inhibition of Plasmodium falciparum Dd2 in whole red blood cells, using parasite LDH activity as an index of growth. Test compounds present at 2uM
# Format: functional
Number in %, nothing else.

Please review the following examples before continuing.
O=C(CCN1CCCCC1)Nc1ccc(Nc2nccc(NCC(O)c3ccccc3)n2)cc1 (centres undefined) = 60
Brc1ccc(Nc2nc(NCC3CCCO3)c3ccccc3n2)cc1 (centres undefined) = 99
COc1cc(-c2nc(-c3ccc([N+](=O)[O-])cc3)c(-c3ccccc3)[nH]2)cc(OC)c1O = 56
Cc1cccn2c(=O)c3cc(C(=O)NCc4cccnc4)c(=N)n(CCc4ccccc4)c3nc12 = 38
O=C(O)C(F)(F)F.O=c1cc(N2CCNCC2)c(Cl)nn1Cc1ccc(NS(=O)(=O)c2ccc(Oc3ccccc3)cc2)cc1 = 0
O=C(O)C(F)(F)F.c1cc(CN2CCCCC2)cc(-c2csc(-c3nc4ccccc4[nH]3)c2)c1 = 16
COc1ccc(CCNCCCCCCNCCc2ccc(OC)c(OC)c2Cl)c(Cl)c1OC.Cl = 0
CCn1c(SCc2ccccc2)nc2c1c(=O)[nH]c(=O)n2C = 30

Now consider a different compound.
Entry CCOc1cc(C(=O)N[C@@H](Cc2ccccc2)[C@H](O)CNCc2cccc(OC)c2)cc(N2CCCCS2(=O)=O)c1.Cl needs its Inhibition filled in; supply it.
94

###

# Tested on: HepG2
# assay: GSK_TCMDC: Percent inhibition of human HepG2 cell line. Test compounds present at 10uM.
# Assay type: functional
Lab note - cut at 20% for Inhibition: y if strictly below, n if not.

As a guide, the following entries are already answered.
COc1ccc(Nc2ncc3c(-c4cccc(NC(=O)Cc5cccc(F)c5)c4)c[nH]c3n2)cc1OC = n
CCCCCCCN1CC[C@@H](CCCc2ccnc3ccc(OCCC4CCNCC4)cc23)[C@@H](CC)C1.Cl = n
COc1ccc(S(=O)(=O)Nc2ccc(C(=O)NCc3ccc(C(F)(F)F)cc3)cc2)cc1N1CCN(CC2CC2)CC1.O=C(O)C(F)(F)F = n
Cc1[nH]n(-c2cccc(C(F)(F)F)c2)c(=O)c1-c1ccc(Cl)cc1 = y
COc1ccc(CCCCN2C(=O)C(c3ccccc3)(c3ccccc3)N=C2N)cc1.O=C(O)C(F)(F)F = n
CCC[C@@H]([C@@H](CC1CCCCC1)C(=O)N[C@H](C(=O)Nc1ccccn1)[C@H](C)CC)N(O)C=O = n
O=C(Nc1ccc(OC(F)(F)F)cc1)Nc1ccc([N+](=O)[O-])cc1 = n
CCCCN(CCCC)CCNC(=O)c1cc(OC(F)(F)F)ccc1O = y

Okay, next one:
Dear colleague, could you confirm whether Inhibition of CCC1CN2CCc3c([nH]c4ccccc34)C2CC1CC1=NCCc2c1[nH]c1ccc(OC)cc21.Cl (centres undefined) falls below 20%? Thanks.
n

###

# Test system: Plasmodium falciparum
# assay: GSK_TCMDC: Inhibition of Plasmodium falciparum 3D7 in whole red blood cells, using parasite LDH activity as an index of growth. Test compounds present at 2uM
# Type: functional
reported-property: Inhibition (%)
Number in %, nothing else.

Please review the following examples before continuing.
COc1cc(Cc2cnc(N)nc2N)cc(OCCCCc2ccc([N+](=O)[O-])cc2)c1OC = 88
Cc1ccccc1C1CCN(C2CCC(NC(=O)/C=C/c3ccc(F)c(F)c3)CC2)CC1 (centres undefined) = 93
CCc1cc(OC)ccc1C1CCN(CCCCNC(=O)c2ccc(NC(=O)c3ccc(Cl)cc3)cc2)CC1.Cl = 95
CCC(Cc1cnc2nc(N)nc(N)c2n1)c1ccc(C(=O)O)cc1 (centres undefined) = 93
O=C(Nc1ccsc1)Nc1cccc(-c2cccc(-c3nc4cc(C(F)(F)F)ccc4[nH]3)c2)c1 = 100
Cc1ccc(C(=O)Nc2cccc([N+](=O)[O-])c2)cc1S(=O)(=O)N1CC(C)CC(C)C1 (centres undefined) = 100

Entry CCOC(=O)C(C)(C)Oc1ccc(C(=C2CC(C)(C)CC(C)(C)C2)c2ccc(O)cc2)cc1 needs its Inhibition filled in; supply it.
92

Entry CC(Cc1ccc(NC(=O)c2ccc(NCCc3ccccc3)cc2)cc1)NCCc1cccc(Cl)c1.Cl (centres undefined) needs its Inhibition filled in; supply it.
92

Entry COc1cc(OC)c(NC(=O)COc2ccc(C)cc2)cc1Cl needs its Inhibition filled in; supply it.
86

###

# Test system: Plasmodium falciparum
# assay: GSK_TCMDC: Inhibition of Plasmodium falciparum Dd2 in whole red blood cells, using parasite LDH activity as an index of growth. Test compounds present at 2uM
# Assay type: functional
Returns one of 1 or 0; 1 when Inhibition is >= 90%.

Dear colleague, could you confirm whether C[C@H](CNc1ccnc(Nc2ccc3[nH]c(=O)[nH]c3c2)n1)c1ccccc1.O=CO has Inhibition at or above 90%?
0

Dear colleague, could you confirm whether CCCc1cc(C(=O)N[C@@H](Cc2ccccc2)[C@H](O)CNC2CCOCC2)c(F)c(N2CCCCS2(=O)=O)c1 has Inhibition at or above 90%?
1

Dear colleague, could you confirm whether Cc1ccccc1C(=O)Nc1cccc(-c2nc3ncccn3c2C)c1 has Inhibition at or above 90%?
1

Dear colleague, could you confirm whether CCOC(=O)c1cn(CC)c2cc(OCc3ccccc3)ccc2c1=O has Inhibition at or above 90%?
1

Dear colleague, could you confirm whether Cl.Cl.N=C(N)Nc1ccc(Cc2ccc(NC(=N)N)cc2)cc1 has Inhibition at or above 90%?
1

Dear colleague, could you confirm whether CCOc1ccc(-c2nonc2NC(=O)CC(C)C)cc1OCC has Inhibition at or above 90%?
0

Dear colleague, could you confirm whether Cc1ccc(F)c(OCC2CCCN(c3ccc(C(=O)NC4CC4)cn3)C2)c1 (centres undefined) has Inhibition at or above 90%?
1

Dear colleague, could you confirm whether CN(C)CCCn1c(N)c(-c2nc3ccccc3[nH]2)c2nc(C#N)c(C#N)nc21 has Inhibition at or above 90%?
1

Dear colleague, could you confirm whether CCOC(=O)C(=CNc1ccc(Cc2cnc(N)nc2N)cc1CC)C(=O)OCC has Inhibition at or above 90%?
0
